# Test system: THRa:RXRa (NR concentration 90 nM, RXRa partner concentration 90 nM)
# test: PBM binding z-score (relative to random genomic background probes); higher = stronger binding; sequences stand for … in GC…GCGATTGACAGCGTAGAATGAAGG
Parameter: PBM binding z-score. Scope: all listed entries.

PBM binding z-score recorded for this sequence, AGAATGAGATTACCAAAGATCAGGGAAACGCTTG , is -0.261

PBM binding z-score recorded for this sequence, AGTCAAAGTTGAGGACGAGGTAACGTAAAGCACG , is 3.3

PBM binding z-score recorded for this sequence, GCTGCTAGGTCAACTGATGGTCACCTAAAGCTCG , is 3.38

PBM binding z-score recorded for this sequence, CGAACAAGGTCATCCAGGACAGTGAATACATTGA , is 4.53

PBM binding z-score recorded for this sequence, AGTCAAAGTTCAGGACGAGGTAACGTTAAGCACG , is 3.83

PBM binding z-score recorded for this sequence, CGAACTAGGTCGTCCAGGACAGTGAATACATTGA , is 2.27

PBM binding z-score recorded for this sequence, AGTCAAACTTCAGGACGAGGTAACGTAAAGCACG , is 2.44

PBM binding z-score recorded for this sequence, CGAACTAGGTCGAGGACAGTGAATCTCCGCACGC , is 2.11

Next:
PBM binding z-score recorded for this sequence, ATCGAAAGGTCCAAGGTGAGTATACCCACCCGAA , is 1.35

PBM binding z-score recorded for this sequence, CCTTAAGGGTCACGAGGTTATAGCACGACGAGCG , is 4.24

PBM binding z-score recorded for this sequence, ACTCGGAGGACAAAGGTCAGGGCTACGCCAGTGA , is 3.63

PBM binding z-score recorded for this sequence, ATATGTAGGTTAGCTGGGGTCCTTCAGACTAGGC , is 3.45
